# experiment: Phase I clinical trial, human plasma pharmacokinetics of oral Compound 1
# Format: in vivo
# particulars: human, plasma, po, 340 mg/m^2, Day 21, Cohort 5 (BID), 340 mg/m^2 (330 mg), oral twice daily; read-out: AUC(0-12)
reportedMetric: AUC(0-t) (ng·h/mL)
Kindly provide the numeric value in ng·h/mL only, without the unit symbol.

Task: Tell me the measured AUC(0-t) of "C[C@H](O)C(=O)N1CCC(CCn2c(Sc3cc4c(cc3Br)OCO4)nc3c(N)ncnc32)CC1" , please.
Output: 69500

====

# experiment: Phase I clinical trial, human plasma pharmacokinetics of oral Compound 1
# Format: in vivo
# particulars: human, plasma, po, 100 mg/m^2, Day 21, Cohort 2, 100 mg/m^2 (160 mg), oral daily; read-out: AUC(0-24)
reportedMetric: AUC(0-t) (ng·h/mL)
Number in ng·h/mL, nothing else.

Task: Would you kindly share the measured AUC(0-t) for C[C@H](O)C(=O)N1CCC(CCn2c(Sc3cc4c(cc3Br)OCO4)nc3c(N)ncnc32)CC1 [Compound 1] ?
Output: 49800

Just for reference, patent US20120277257A1 is where these values come from.
